Test system: 266295-075-R-J1-PDC spheroid viability;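 further: spheroids exposed to compounds for seven days before readout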
Assay: Anticancer human tumor 266295-075-R-J1-PDC patient-derived head and neck squamous carcinoma cell line growth inhibition [POLQ]
Conditions: second compound 0.0316 µM; first compound 0.001 µM; active compounds read low; spheroids with HUVEC and MSC
Quantity Measured: viability, T/C (%)
Write it as a number; the unit % goes unstated.

Reported viability, T/C of CC[C@@]1(O)C(=O)OCc2c1cc1n(c2=O)Cc2cc3c(CN(C)C)c(O)ccc3nc2-1 + Cc1cccc(N(C)C(=O)C2C(O)CCN2c2nc(C)cc(C(F)(F)F)c2C#N)c1 : 85.8

Next:
Reported viability, T/C of Cn1ncnc1[C@H]1c2n[nH]c(=O)c3cc(F)cc(c23)N[C@@H]1c1ccc(F)cc1 + COC1C(OC(N)=O)C(O)C(Oc2ccc3c(O)c(NC(=O)c4ccc(O)c(CC=C(C)C)c4)c(=O)oc3c2C)OC1(C)C : 97.4

Reported viability, T/C of CC[C@@]1(O)C(=O)OCc2c1cc1n(c2=O)Cc2cc3c(CN(C)C)c(O)ccc3nc2-1 + COC1C(OC(N)=O)C(O)C(Oc2ccc3c(O)c(NC(=O)c4ccc(O)c(CC=C(C)C)c4)c(=O)oc3c2C)OC1(C)C : 99.8

Reported viability, T/C of CC[C@@]1(O)C(=O)OCc2c1cc1n(c2=O)Cc2cc3c(CN(C)C)c(O)ccc3nc2-1 + Nc1ccc(C#CCN(C(=O)Cc2ncc(C(F)(F)F)cc2C(F)(F)F)c2ccc(F)cc2)nn1 : 105

Reported viability, T/C of Cn1ncnc1[C@H]1c2n[nH]c(=O)c3cc(F)cc(c23)N[C@@H]1c1ccc(F)cc1 + Nc1ccc(C#CCN(C(=O)Cc2ncc(C(F)(F)F)cc2C(F)(F)F)c2ccc(F)cc2)nn1 : 95.8

Reported viability, T/C of Cn1ncnc1[C@H]1c2n[nH]c(=O)c3cc(F)cc(c23)N[C@@H]1c1ccc(F)cc1 + Cc1cccc(N(C)C(=O)C2C(O)CCN2c2nc(C)cc(C(F)(F)F)c2C#N)c1 : 93.7

src = PubChem BioAssay AID1963853
